tested on: RPMI-8226 leukemia; experiment: NCI-60 one-dose screen, 48 h (100 = growth as untreated, 0 = no growth, -100 = all killed); details: 10 µM unless noted
The panel holds about 83,000 compounds, 20% with a hit somewhere; the sample as a whole holds those more often.
// map growth onto a label; ranges bin 0 = under -30%, bin 1 = from -30% up to 30%, bin 2 = 30% and over

molecule	target_or_test_system	answer_label
O=C(Cn1nnc([N+](=O)[O-])n1)c1ccccc1	RPMI-8226 leukemia	bin 2
NC(CSC(c1ccccc1)(c1ccccc1)c1ccc2c(c1)OCO2)C(=O)O (centres undefined)	RPMI-8226 leukemia	bin 1
CCOC(=O)Nc1nc2ccc(SCC(C)C)cc2s1	RPMI-8226 leukemia	bin 2
Oc1c(I)cc(-c2nc3ccccc3s2)cc1CN(Cc1ccccn1)Cc1ccccn1	RPMI-8226 leukemia	bin 1
CCCCCCCCCCCCCCCCCCOc1ccccc1CC(=O)NCC[N+]1(C)CCOCC1	RPMI-8226 leukemia	bin 1
CC(CN)[C@@H]1CC[C@]2(CO)CC[C@]3(C)[C@H](CC[C@@H]4[C@@]5(C)CCC(N)C(C)(C)[C@@H]5CC[C@]43C)[C@@H]12 (some centres undefined)	RPMI-8226 leukemia	bin 0
COc1ccc(Cl)cc1Nc1nc(C(F)(F)F)ccc1C(=O)N/N=C/c1ccccc1Cl	RPMI-8226 leukemia	bin 0
CC1(C)CC[C@]2(C(=O)N3CCOCC3)CC[C@]3(C)C(=CC[C@@H]4[C@@]5(C)C/C(=C/c6ccncc6)C(=O)C(C)(C)[C@@H]5CC[C@]43C)[C@@H]2C1	RPMI-8226 leukemia	bin 0
C[N+](C)(C/C=C/c1ccccc1)Cc1ccccc1	RPMI-8226 leukemia	bin 2
